Biological target: T1, P8mS
T1 chain: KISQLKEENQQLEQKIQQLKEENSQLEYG
Assay: two-hybrid library CC1;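 note: natural log of median RNA to DNA barcode read ratio; higher means stronger binding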
Conditions: mean of both orientations
readout type: interaction score
Number only, no unit.

State its interaction score: ENARLEEKIRQLKQKNSQLKEEIQQLEYGC [P5SC2] -2.45

Please report the measured interaction score for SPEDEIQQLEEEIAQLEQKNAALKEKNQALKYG [P3] -2.7

Report measured interaction score; entry is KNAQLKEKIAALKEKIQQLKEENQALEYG [P12] -2.85

Give interaction score for KNSQLKEEIQQLEEENQQLEEKIRQLKYGC [P6SC1] -2.55

Give recorded interaction score. SPEDKNAALKEEIQALEEENQALEEKIAQLKYG [P6] -2.62

Output interaction score of KISQLKQKIQQLKQENQQLEEENSQLEYG [P4mS] -2.9

Given KNSQLKEEIQQLEEENQQLEEKISQLKYG [P6mS] , respond with its interaction score. -2.85

Indicate the recorded interaction score value for this binder: SPEDENAALEEKIAQLKQKNAALKEEIQALEYG [P5] -2.62

State its interaction score: EIQSLEEKNSQLKQEISQLEEKNQQLKYG [P7mS] -0.225

Give a short answer stating reported interaction score for SPEDEIQALEEKNAQLKQEIAALEEKNQALKYG [P7] . 0.223

State, in one line, measured interaction score of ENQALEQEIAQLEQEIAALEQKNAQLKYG [P11] -2.69

Please report the measured interaction score for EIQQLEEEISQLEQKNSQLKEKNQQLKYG [P3mS] -2.87

Note interaction score for the binder shown: ENSQLEEKISQLKQKNSRLKEEIARLEYGC [P5SC1] -2.29

Output measured interaction score for this item: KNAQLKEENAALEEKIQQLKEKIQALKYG [P10] -2.75

Using the record for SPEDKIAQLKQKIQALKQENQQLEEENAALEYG [P4] , state its measured interaction score. -2.82

For the binder ENSQLEEKISQLKQKNSQLKEEIQQLEYG [P5mS] , report interaction score. -2.74

For the binder SPEDKIAQLKEENQQLEQKIQALKEENAALEYG [P8] , give its reported interaction score. -2.75

Look up interaction score of KNERLKEEIQRLEQENQQLEEKISQLKYGC [P6SC2] and report it. -2.54
